Readings of Emax for the listed compounds
# STUDY SYSTEM: Cannabinoid receptor 1 (Homo sapiens, UniProt P21554)
# Sequence (P21554 whole entry): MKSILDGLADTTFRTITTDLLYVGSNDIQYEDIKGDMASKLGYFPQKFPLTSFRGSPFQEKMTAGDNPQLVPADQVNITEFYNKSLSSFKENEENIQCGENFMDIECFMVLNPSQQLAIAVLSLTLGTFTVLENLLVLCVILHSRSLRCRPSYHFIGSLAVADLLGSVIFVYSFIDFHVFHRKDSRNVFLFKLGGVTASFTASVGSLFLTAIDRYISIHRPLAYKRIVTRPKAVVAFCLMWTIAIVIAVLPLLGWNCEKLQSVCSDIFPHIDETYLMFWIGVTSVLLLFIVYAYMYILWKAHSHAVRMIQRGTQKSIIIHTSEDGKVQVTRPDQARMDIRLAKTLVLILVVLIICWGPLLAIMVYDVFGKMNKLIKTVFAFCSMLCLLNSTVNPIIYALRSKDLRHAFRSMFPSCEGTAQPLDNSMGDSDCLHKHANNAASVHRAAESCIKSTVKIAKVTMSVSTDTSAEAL
# MEASUREMENT PROTOCOL: Agonist activity at human CB1 receptor expressed in HEK293S cell membranes after 1 hr by GTPgamma[35S] binding assay relative to WIN 55,212-2
Hi! Could you send only the number? It should be in %, unit omitted.

Worked examples follow.
COMPOUND	Emax / %
O=C(NCC1CCC1)c1ncccc1NC(=O)c1ccc(Cn2ccnc2)c2ccccc12	100
C[S+]([O-])Cc1ccc(C(=O)Nc2nccnc2C(=O)NCC2CCC2)c2ccccc12 (single isomer, unassigned)	110
CS(=O)(=O)Cc1ccc(C(=O)Nc2cccnc2C(=O)NCC2CCC2)c2ccccc12	77
O=C(NCC1CCCCC1)c1cc(Cl)ccc1NC(=O)c1cccc2ccccc12	77
O=C(NCC1CCCCC1)c1ncccc1NC(=O)c1cccc2ccccc12	110
O=C(NCC1CCC1)c1nc(OCCO)ccc1NC(=O)c1ccnc2ccccc12	51
C[S+]([O-])Cc1ccc(C(=O)Nc2cccnc2C(=O)NCC2CCC2)c2ccccc12 (centres undefined)	110
C[S+]([O-])Cc1ccc(C(=O)Nc2nccnc2C(=O)NCC2CCC2)c2ccccc12 (stereo in doubt; 18f)	120

Could you now consider this next compound?
Request: Can you look up the measured Emax of O=C(NCC1CCC1)c1ncccc1NC(=O)c1ccc(Cn2cccc2)c2ccccc12 for me?
Response: 82

* * *

# STUDY SYSTEM: Voltage-gated inwardly rectifying potassium channel KCNH2 (Homo sapiens)
# Sequence (Q12809 whole entry): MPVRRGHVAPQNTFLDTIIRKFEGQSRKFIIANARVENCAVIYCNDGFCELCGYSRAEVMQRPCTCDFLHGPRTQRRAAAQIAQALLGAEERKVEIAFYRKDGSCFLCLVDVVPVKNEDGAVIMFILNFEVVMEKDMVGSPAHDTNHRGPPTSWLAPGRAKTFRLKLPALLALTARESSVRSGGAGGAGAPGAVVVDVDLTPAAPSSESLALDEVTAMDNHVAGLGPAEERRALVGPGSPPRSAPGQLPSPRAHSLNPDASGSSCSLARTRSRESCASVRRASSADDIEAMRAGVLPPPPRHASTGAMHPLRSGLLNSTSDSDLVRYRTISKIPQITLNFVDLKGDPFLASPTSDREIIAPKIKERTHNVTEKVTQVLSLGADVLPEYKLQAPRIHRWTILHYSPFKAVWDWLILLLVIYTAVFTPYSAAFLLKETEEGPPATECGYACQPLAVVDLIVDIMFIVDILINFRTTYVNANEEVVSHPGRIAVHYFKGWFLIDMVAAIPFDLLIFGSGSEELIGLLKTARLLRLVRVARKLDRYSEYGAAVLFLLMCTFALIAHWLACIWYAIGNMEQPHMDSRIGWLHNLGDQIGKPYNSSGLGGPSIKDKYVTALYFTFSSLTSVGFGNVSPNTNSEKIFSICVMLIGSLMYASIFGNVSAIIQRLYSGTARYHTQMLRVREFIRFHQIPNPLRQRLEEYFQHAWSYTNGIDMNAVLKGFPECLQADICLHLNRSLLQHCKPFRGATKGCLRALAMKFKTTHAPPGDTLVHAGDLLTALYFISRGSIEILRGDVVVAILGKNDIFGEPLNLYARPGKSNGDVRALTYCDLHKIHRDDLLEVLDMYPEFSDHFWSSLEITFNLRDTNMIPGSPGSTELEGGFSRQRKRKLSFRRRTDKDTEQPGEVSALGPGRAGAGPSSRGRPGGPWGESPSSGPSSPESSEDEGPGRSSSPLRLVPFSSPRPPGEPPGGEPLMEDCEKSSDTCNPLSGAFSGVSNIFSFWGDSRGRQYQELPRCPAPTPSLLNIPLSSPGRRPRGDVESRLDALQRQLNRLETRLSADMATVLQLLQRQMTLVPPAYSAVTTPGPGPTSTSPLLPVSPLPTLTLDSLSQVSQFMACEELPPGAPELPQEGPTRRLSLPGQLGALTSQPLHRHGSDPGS
# MEASUREMENT PROTOCOL: Inhibition of human ERG expressed in CHO cells by patch clamp assay
RECORDED ENDPOINT: IC50 (µM)
Number only, in µM; omit the unit.

MOLECULE	UNIT LABEL	MEASURED
COc1ccc(NC(=O)c2ccc(Cn3ccnn3)c3ccccc23)c(C(=O)NCC2CCOCC2)n1	µM	11

Now consider a different molecule.
Request: Item under review: C[S+]([O-])Cc1ccc(C(=O)Nc2nccnc2C(=O)NCC2CCC2)c2ccccc12 (stereo in doubt; 18f) . Reported IC50?
Response: 17

* * *

# IC50 annotations
# STUDY SYSTEM: UniProt:P08684
# Sequence (P08684 whole entry): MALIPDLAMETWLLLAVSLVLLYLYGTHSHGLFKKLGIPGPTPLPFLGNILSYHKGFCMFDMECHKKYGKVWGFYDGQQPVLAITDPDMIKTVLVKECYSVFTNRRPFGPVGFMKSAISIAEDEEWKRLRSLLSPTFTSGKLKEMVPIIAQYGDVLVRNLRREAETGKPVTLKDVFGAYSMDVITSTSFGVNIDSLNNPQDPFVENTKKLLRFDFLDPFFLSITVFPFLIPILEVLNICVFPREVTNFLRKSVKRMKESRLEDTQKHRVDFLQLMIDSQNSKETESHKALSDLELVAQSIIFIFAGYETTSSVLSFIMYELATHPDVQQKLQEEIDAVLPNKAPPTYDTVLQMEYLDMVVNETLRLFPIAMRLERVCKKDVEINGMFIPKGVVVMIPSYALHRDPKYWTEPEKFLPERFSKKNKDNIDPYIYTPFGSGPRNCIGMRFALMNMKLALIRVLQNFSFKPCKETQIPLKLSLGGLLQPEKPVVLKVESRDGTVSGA
# MEASUREMENT PROTOCOL: Inhibition of human recombinant CYP3A4 expressed in Escherichia coli cells
Entry rule: numbers only, all in µM.

// known answers, use as guide
COMPOUND	RECORDED ENDPOINT	UNIT LABEL	MEASURED
C[S+]([O-])Cc1ccc(C(=O)Nc2ccc(OCCOCCO)nc2C(=O)NCC2CCC2)c2ccccc12 (stereo unspecified)	IC50	µM	5.5
O=C(NCC1CCOCC1)c1ncccc1NC(=O)c1ccc(Cn2ccnn2)c2ccccc12	IC50	µM	0.61
COc1ccc(NC(=O)c2ccc(C[S+](C)[O-])c3ccccc23)c(C(=O)NCC2CCOCC2)n1 (stereo unspecified)	IC50	µM	8.8

Please find the next compound below.
Request: What value of IC50 has been reported for the following compound? COc1ccc(NC(=O)c2ccc(Cn3ccnn3)c3ccccc23)c(C(=O)NCC2CCOCC2)n1
Response: 0.36

* * *

# STUDY SYSTEM: Cannabinoid receptor 2 (Homo sapiens, UniProt P34972)
# Sequence (P34972 whole entry): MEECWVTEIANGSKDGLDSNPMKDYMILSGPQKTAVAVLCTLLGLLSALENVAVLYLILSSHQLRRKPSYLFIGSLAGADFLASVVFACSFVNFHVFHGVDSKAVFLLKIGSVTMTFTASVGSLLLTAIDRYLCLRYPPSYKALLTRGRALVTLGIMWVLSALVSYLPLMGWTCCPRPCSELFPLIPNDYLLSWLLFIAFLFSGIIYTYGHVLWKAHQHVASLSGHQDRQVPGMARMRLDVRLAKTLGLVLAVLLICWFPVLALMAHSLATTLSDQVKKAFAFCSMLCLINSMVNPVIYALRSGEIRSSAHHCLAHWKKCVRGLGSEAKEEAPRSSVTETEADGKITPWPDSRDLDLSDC
pIC50: −log10 of the molar value.
Response key: Fulfilled means pIC50 >= 6; Not fulfilled means pIC50 < 6.

Reference set (3 entries):
MOLECULE SMILES	STUDY SYSTEM	CLASS LABEL
COc1ccc(NC(=O)c2ccc(Cn3ccnn3)c3ccccc23)c(C(=O)NCC2CCOCC2)n1	Cannabinoid receptor 2 (Homo sapiens, UniProt P34972)	Fulfilled
O=C(NCC1CCC1)c1ncccc1NC(=O)c1cccc2cccnc12	Cannabinoid receptor 2 (Homo sapiens, UniProt P34972)	Fulfilled
O=C(NCC1CCCCC1)c1cc(Cl)ccc1NC(=O)c1cccc2ccccc12	Cannabinoid receptor 2 (Homo sapiens, UniProt P34972)	Not fulfilled

Next, consider the following compound.
Request: Is the recorded value of pIC50 equal to or greater than 6 for this compound? CN(C)Cc1ccc(C(=O)Nc2cccnc2C(=O)NCC2CCC2)c2ccccc12
Response: Fulfilled

* * *

# MEASUREMENT PROTOCOL: Ratio of drug level in brain to plasma in Sprague-Dawley rat
# Assay type: ADME, cell-free
# CONDITION CONTEXT: Sprague-Dawley, brain and plasma, read-out: BPR
molecules and their reported Kp
Please reply with the number alone, leaving off any unit.

Before answering, review these 3 worked examples.
MOLECULE	MEASURED
COc1ccc(NC(=O)c2ccc(Cn3ccnn3)c3ccccc23)c(C(=O)NCC2CCC2)n1	0.31
O=C(NCC1CCOCC1)c1nc(OS(=O)(=O)CCC(F)(F)F)ccc1NC(=O)c1ccc(Cn2ccnn2)c2ccccc12	0.016
COc1ccc(NC(=O)c2ccc(C[S+](C)[O-])c3ccccc23)c(C(=O)NCC2CCOCC2)n1 (centres undefined)	0.031

Request: Quick check: Kp of COc1ccc(NC(=O)c2ccc(Cn3ccnn3)c3ccccc23)c(C(=O)NCC2CCCCC2)n1 ?
Response: 0.18

* * *

Below: a set of entries, each annotated with reported Kp.
# MEASUREMENT PROTOCOL: Ratio of drug level in brain to plasma in Sprague-Dawley rat
# Format: ADME, cell-free
# CONDITION CONTEXT: Sprague-Dawley, brain and plasma, read-out: BPR
// return a plain number; no unit text

MOLECULE	RECORDED ENDPOINT	MEASURED
C[S@@+]([O-])Cc1ccc(C(=O)Nc2cccnc2C(=O)NCC2CCOCC2)c2ccccc12	Kp	0.031

Request: Entry C[S+]([O-])Cc1ccc(C(=O)Nc2ccc(OCCOCCO)nc2C(=O)NCC2CCC2)c2ccccc12 (centres undefined) has what Kp?
Response: 0.02

* * *

Listing of entries alongside the reported Emax.
# STUDY SYSTEM: UniProt P21554
# MEASUREMENT PROTOCOL: Agonist activity at human CB1 receptor expressed in HEK293S cell membranes after 1 hr by GTPgamma[35S] binding assay relative to WIN 55,212-2
Please make sure the unit comes right after the number.

The following compounds have reported results that may help.
COMPOUND	Emax
O=C(NCC1CCOCC1)c1ncccc1NC(=O)c1ccc(Cn2ccnn2)c2ccccc12	110%
COc1ccc(NC(=O)c2ccc(C[S+](C)[O-])c3ccccc23)c(C(=O)NCC2CCOCC2)n1 (stereo not drawn)	79%

For the next question, use this compound.
Request: Quick check: Emax of CN(C)Cc1ccc(C(=O)Nc2cccnc2C(=O)NCC2CCC2)c2ccccc12 ?
Response: 100%

* * *

# MEASUREMENT PROTOCOL: Lipophilicity, log D of the compound
# CONDITION CONTEXT: octanol/water
Label rule met when logD is strictly below 5; at or above that, label rule not met.

COMPOUND	CLASS LABEL
O=C(NCC1CCOCC1)c1ncccc1NC(=O)c1ccc(Cn2ccnn2)c2ccccc12	rule met
O=C(NCC1CCC1)c1nc(OCCO)ccc1NC(=O)c1ccnc2ccccc12	rule met
O=C(NCC1CCC1)c1nccnc1NC(=O)c1ccc(Cn2ccnn2)c2ccccc12	rule met
O=C(NCC1CCCCC1)c1cnccc1NC(=O)c1cccc2ccccc12	rule not met
O=C(NCC1CCOCC1)c1nc(OS(=O)(=O)CCC(F)(F)F)ccc1NC(=O)c1ccc(Cn2ccnn2)c2ccccc12	rule met

Request: # check: logD < 5 for C[S+]([O-])Cc1ccc(C(=O)Nc2cccnc2C(=O)NCC2CCC2)c2ccccc12 (stereo not given)
Response: rule met

Request: For COc1ccc(NC(=O)c2ccc(C[S+](C)[O-])c3ccccc23)c(C(=O)NCC2CCOCC2)n1 (stereo not given) then?
Response: rule met

Request: # iterate: C[S@@+]([O-])Cc1ccc(C(=O)Nc2cccnc2C(=O)NCC2CCOCC2)c2ccccc12
Response: rule met

* * *

# STUDY SYSTEM: Cannabinoid receptor 2 (Homo sapiens)
Entries and their log10 of IC50
Values are log10 of IC50 in nM.

// worked examples, log10 of IC50 included
COMPOUND	log10 of IC50
O=C(NCC1CCC1)c1ncccc1NC(=O)c1cccc2cnccc12	1.58
O=C(NCC1CCC1)c1ncccc1NC(=O)c1ccc(Cn2cccc2)c2ccccc12	2.53
C[S+]([O-])Cc1ccc(C(=O)Nc2ccc(OCCOCCO)nc2C(=O)NCC2CCC2)c2ccccc12 (configuration not stated)	2.70

Request: For O=C(NCC1CCCCC1)c1ncccc1NC(=O)c1cccc2ccccc12 , what is its reported log10 of IC50?
Response: 2.04

Request: Next compound: O=C(NCC1CCC1)c1ncccc1NC(=O)c1ccc(Cn2cccn2)c2ccccc12
Response: 1.84

Request: What about this compound? COc1ccc(NC(=O)c2ccc(Cn3ccnn3)c3ccccc23)c(C(=O)NCC2CCCCC2)n1
Response: 2.04

Request: For O=C(NCC1CCOCC1)c1ncccc1NC(=O)c1cccc2ccccc12 then?
Response: 2.41

Request: Now the compound O=C(NCC1CCC1)c1nc(OCCO)ccc1NC(=O)c1ccnc2ccccc12
Response: 3.40

Request: Consider next the compound O=C(NCC1CCC1)c1ncccc1NC(=O)c1cccc2ccccc12 in the same way.
Response: 1.41

Request: Moving on to the next compound: O=C(NCC1CCC1)c1nc(OCCOCCO)ccc1NC(=O)c1ccnc2ccccc12
Response: 3.08

Request: // same read-out, input: C[S+]([O-])Cc1ccc(C(=O)Nc2nccnc2C(=O)NCC2CCC2)c2ccccc12 (stereo in doubt; 18f)
Response: 2.48
